- protocol.details: chemical genetic growth profiling, strain panel (AID 1159580);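 note: tested at 20 µM; growth read once vehicle control cultures reached saturation at 30 °C; 1 = growth at the plate median or of vehicle wells; lower values mean less growth of the strain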
- recorded.conditions: S. cerevisiae deletion strains, growth OD, locus YLR262C, strain YPT6, stronger effect = lower value
About 2,000 (36%) of roughly 5,500 compounds were called active. About 18% were inconclusive and are not listed. The list shows a part of the results.
Below, each of the molecules is paired with its reported normalized growth value.

# example entries with known answers
[
  {
    "molecule": "CCOC(=O)c1c(C)cc(O)cc1O",
    "measured.endpoint": "normalized growth",
    "measurement": "0.556 (active)"
  },
  {
    "molecule": "CCC(=O)c1c(O)cc(O)cc1O",
    "measured.endpoint": "normalized growth",
    "measurement": "0.991 (inactive)"
  }
]

Qu. Could you tell me which normalized growth is on file for "CCOC(=O)c1c(C)cc(OC)cc1O" ?
Ans. 0.928 (inactive)

----------
- protocol.details: chemical genetic growth profiling, strain panel (AID 1159580);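 note: tested at 20 µM; growth read once vehicle control cultures reached saturation at 30 °C; 1 = growth at the plate median or of vehicle wells; lower values mean less growth of the strain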
- recorded.conditions: S. cerevisiae deletion strains, growth OD, locus YPL078C, strain atp4
The campaign covered roughly 5,500 compounds. About 2,000 (36%) were called active. Roughly 18% stayed inconclusive and do not appear here. Cut-off read from the data, not from the text of the source: active = normalized growth mostly below about 0.91 (no sharp cut-off); inconclusive = no clear call, values can overlap the other calls; inactive = mostly above about 0.92. This is one part of the list.
Can you answer with just one of these options? 1 (active), -1 (inactive)

Use the examples below as a reference point.
[
  {
    "compound": "C[C@@H]1CC[C@@]2(OC1)OC1CC3C4CC=C5C[C@@H](O)CC[C@]5(C)C4CC[C@]3(C)C1[C@@H]2C (some centres not stated)",
    "assigned.class": -1
  },
  {
    "compound": "CC1CC[C@@]2(OC1)O[C@H]1CC3C4CC[C@@H]5C[C@@H](O)CC[C@]5(C)C4CC[C@]3(C)[C@H]1[C@@H]2C (some centres not stated)",
    "assigned.class": -1
  },
  {
    "compound": "C=C1CCC2(OC1)OC1CC3C4CC=C5CC(O)CC(O)C5(C)C4CCC3(C)C1C2C (configuration not stated)",
    "assigned.class": -1
  },
  {
    "compound": "CC1CC[C@]2(NC1)O[C@H]1CC3C4CC[C@H]5C[C@@H](O)CC[C@]5(C)C4CC[C@]3(C)[C@H]1[C@@H]2C (some centres not stated)",
    "assigned.class": 1
  },
  {
    "compound": "C[C@@H]1CC[C@@]2(OC1)O[C@H]1CC3C4CC[C@H]5C[C@@H](O)CC[C@]5(C)C4CC[C@]3(C)[C@H]1[C@@H]2C (some centres not stated)",
    "assigned.class": -1
  }
]

Qu. Entry COc1ccc2c(c1)CCC1C2CCC2(C)C1C[C@@H](O)C2O (some centres not stated) : call = ?
Ans. -1

Qu. # iterate: C[C@@H]1CC[C@@]2(NC1)O[C@H]1C[C@H]3C4CC=C5C[C@@H](O)CC[C@]5(C)C4CC[C@]3(C)C1[C@@H]2C (some centres not stated)
Ans. 1

----------
Below, each of the compounds is paired with its reported normalized growth value.
- protocol.details: chemical genetic growth profiling, strain panel (AID 1159580);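 note: tested at 20 µM; growth read once vehicle control cultures reached saturation at 30 °C; 1 = growth at the plate median or of vehicle wells; lower values mean less growth of the strain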
- recorded.conditions: S. cerevisiae deletion strains, growth OD, locus YJL115W, strain asf1, stronger effect = lower value
The campaign covered roughly 5,500 compounds. About 2,000 (36%) were called active. Inconclusive results (about 18%) are left out. The list shows a part of the results.

[
  {
    "compound": "O=C(Cc1cccs1)NC1C(=O)N2C(C(=O)[O-])=C(C[n+]3ccccc3)CSC12 (stereo not given)",
    "normalized growth": "0.981 (inactive)"
  }
]

Qu. Could you tell me which normalized growth is on file for "O=C(O)C1=C[C@@H](O)[C@@H](O)[C@H](O)C1" ?
Ans. 0.952 (inactive)

Qu. # iterate: CC(=O)O[C@]1(C(C)=O)CCC2C3C=C(Cl)C4=CC(=O)[C@@H]5C[C@@H]5[C@]4(C)C3CC[C@@]21C (stereo not given in full)
Ans. 1.01 (inactive)

Qu. # iterate: CC(C)(C)NCC(O)c1cc(O)cc(O)c1 (stereo not given)
Ans. 1 (inactive)
